molecular target: R120E hDAAO variant (Homo sapiens, UniProt P14920, R120E); construct: His-tag (N); made in house; host or cells: E. coli BL21 (DE3) Star; assay: FAD and ligand binding by quenching of protein fluorescence, R120E hDAAO; details: in presence of 70 μM benzoate; read-out: FAD Kd, benzoate complex, first saturation phase
Sequence (P14920 whole entry R120E): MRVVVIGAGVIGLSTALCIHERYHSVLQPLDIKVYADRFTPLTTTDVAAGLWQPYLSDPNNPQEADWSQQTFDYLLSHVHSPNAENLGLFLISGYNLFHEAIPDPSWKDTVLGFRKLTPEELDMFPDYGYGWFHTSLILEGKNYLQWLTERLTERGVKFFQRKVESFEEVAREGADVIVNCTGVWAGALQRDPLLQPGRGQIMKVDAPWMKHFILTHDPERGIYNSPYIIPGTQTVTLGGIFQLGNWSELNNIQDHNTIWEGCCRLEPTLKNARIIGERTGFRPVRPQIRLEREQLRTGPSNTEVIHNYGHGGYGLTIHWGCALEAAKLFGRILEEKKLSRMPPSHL
pKd: −log10 of the molar value.
reported-endpoint: pKd

>  <compound>
Cc1cc2nc3c(=O)[nH]c(=O)nc-3n(C[C@H](O)[C@H](O)[C@H](O)COP(=O)(O)OP(=O)(O)OC[C@H]3O[C@@H](n4cnc5c(N)ncnc54)[C@H](O)[C@@H]3O)c2cc1C [FAD]

>  <assay-target>
R120E hDAAO variant (Homo sapiens, UniProt P14920, R120E)

>  <test-result>
6.21

$$$$
